- experimental protocol: In situ rat brain perfusion (brain uptake Kin, extraction E, BBB PS)
- assay setup: brain vascular intrinsic PoS
Each entry below lists one item and its recorded PoS value.
value kind: PoS (mL/s/g)

1. O=C(CO)[C@@H](O)[C@H](O)[C@H](O)CO: 5.74e-06
2. CO: 0.0278
3. CNC(N)=O: 0.000191
4. Nc1ccccc1C(=O)O: 0.36
5. OCCCO: 0.00516
6. CCCCNS(=O)(=O)c1ccccc1 [N-butyl-benzene sulfonamide]: 0.38
7. NC(=O)CI [Iodoacetamide]: 0.00917
8. CC(O)CO (stereo not shown): 0.00216
9. CC(C)NC(C)Cc1ccc(I)cc1 (stereo not shown): 9.49
10. CC(=O)N[C@@H](CS)C(=O)O: 1.82e-06
